Value source: PubChem BioAssay (NCI)

System: ACHN renal
assay-method-text: NCI tumour cell line growth inhibition, 48 h
Entries and their measured TGI follow.

compound | TGI
CC(C)(C)c1cc(C(O)(C(F)(F)F)C(F)(F)F)c2c(c1)C(C(F)(F)F)(C(F)(F)F)OC(C)(C(C)(C)C)N2 (stereo not drawn) | 12.1 µM
Cc1ccc(NC=O)c(-c2c(N)[nH]c(=S)[nH]c2=O)c1 | > 100 µM
O=C(NOC[C@H](O)CO)c1ccc(F)c(F)c1Nc1ccc(I)cc1F | > 100 µM
CC(C)CCC[C@@H](C)[C@H]1CC[C@H]2[C@@H]3CC[C@H]4C[C@@H](CCC=C(c5cc(Cl)c(O)c(C(=O)O)c5)c5cc(Cl)c(O)c(C(=O)O)c5)CC[C@]4(C)[C@H]3CC[C@]12C | > 100 µM
O=C(O)c1ccc(CI)cc1 | 30.1 µM

Please give the measured TGI for this compound: "NC1=C(NC(=O)Cc2ccccc2F)C(=O)c2ccccc2C1=O" > 100 µM

Try the compound COc1ccc(NC(=O)CC2SC(=Nc3ccccc3C)NC2=O)c([N+](=O)[O-])c1 (stereo not drawn) > 100 µM

Try the compound "C[C@@H]1C[C@H](C)CN(S(=O)(=O)c2ccc3c(NO)c4ccc(S(=O)(=O)N5C[C@H](C)C[C@H](C)C5)cc4c(N=O)c3c2)C1" 0.293 µM
